Recorded protein stability index values for a group of variants are listed next.
B1: ATE1 (parent)
chain: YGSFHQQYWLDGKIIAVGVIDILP

Variants of: B1
Experiment: protein stability index of a GFP-peptide fusion (GPS, HEK-293T) (PSI 1-6); higher = more stable;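 further: lentivirally expressed fusions sorted by FACS into six bins by GFP to DsRed ratio, PSI derived from sequencing read proportions per bin multiplied by bin number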
Settings: c terminus: a fixed tail appended

Consider the variant shown here: D21Q What is its recorded protein stability index?
3.26

Record: V17H
3.08

Same again, this time with Y1C
3.63

Here is the next variant: G12I
3.89

Continue with I22A
3.85

And then D11S , what is it?
2.47

And the next one, A16G ?
2.13

Item: G12N
2.45

Please give the result for V17T too.
3.29

Another variant to check: L10R
2.32

Same again, this time with P24L
4.25

Then Q7S ?
4.74

How about this variant: P24F
1.69

Continue with L23A
4.34

And what about the variant I22V ?
2.14

Y8D , same question.
2.78

Would you mind doing A16Y as well?
2.13

Next variant: D21I
2.97

And L10H ?
2.42

Request: I15S
2.5

Now try I14Y .
1.49

S3Y , same question.
2.74
